Test system: HMLE_sh_eGFP viability, CellTiter-Glo luminescence, 72 h
ASSAY_PROCEDURE: cytotoxicity in HMLE control line with eGFP shRNA, dose response, counter-screen for HMLE_sh_ECad selective toxicity project, cell-based, HMLE_sh_eGFP, luminescence (AID 463074);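 note: counterscreen control line to flag general toxicity for the HMLE_sh_ECad screen; potency for loss of viability as luminescence drops below DMSO wells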
Active and inactive are the calls of the source.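 Rule for the calls: active = AC50 no more than tenfold above the top dose tested, or full inhibition at every dose with a flat fit (cut at about 19 µM in these data); inconclusive = flat curve fit with inhibition between 30% and 70%, or poor fit; inactive = AC50 more than tenfold above the top dose tested.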
Outcomes: active, inactive

                                    compound     label
 0  Cc1cc(C)nc(NC(=O)c2ccc(COc3ccccc3Cl)cc2)c1    active
 1  O=[N+]([O-])c1ccc(S(=O)(=O)CC(CN2CCCCC2)N2CCCCC2)cc1 (stereo unspecified)    active
 2  CC(C)OC(=O)c1c2c(n3ccccc13)C(=O)c1ccccc1C2=O  inactive
 3  CC(=O)O[C@H]1[C@@H](O)[C@H](O)[C@H](Oc2c(O)c(C)c3c4c2[C@@H](C)CC[C@@H]4[C@@H](C)C[C@H]3C=C(C)C)O[C@H]1C    active
 4             Cc1cc(C(=O)NNc2ccc(Cl)cc2)no1    active
 5  COC(=O)Nc1ccc(S(=O)(=O)N2CCCc3ccccc32)cc1    active
 6  Cc1cc(C)c2nc(NNC(=O)c3cc(-c4cccs4)nc4ccccc34)sc2c1    active
 7  CCCCCCSc1cccc(-c2nc3cc(C)ccn3c2NC2CCCCC2)c1    active
 8   CC(=O)Oc1ccc(-c2csc(Nc3cccc(C)n3)n2)cc1    active
 9     CCOc1cc(/C=N/O)cc(Br)c1OCc1ccc(Cl)cc1    active
10  O=C(COC(=O)c1c2c(nc3ccccc13)/C(=C\c1cccs1)CCC2)Nc1ccccc1    active
11  CC(=O)Oc1c(Cl)cc(Cl)cc1/C=C/c1ccc2ccccc2n1    active
12  COc1cc(C[C@H](C)[C@H](C)Cc2ccc3c(c2)OCO3)ccc1O    active
13  Cn1nnnc1Sc1ncnc2scc(-c3cccc4c3sc3ccccc34)c12    active
14  Cc1cccc(-n2c(/C=C/c3ccc([N+](=O)[O-])o3)nc3ccccc3c2=O)c1    active
15    CC(C)c1ccc(NC(=O)c2snc3ccc(Cl)cc23)cc1    active
16  COc1ccc(S[C@@H](CCN2CC[C@H](NC(=O)OCc3ccccc3)CCC2=O)c2ccccc2)cc1    active
17  CCn1c2ccccc2c2cc(NS(=O)(=O)c3ccc(C)cc3)ccc21    active
18  COc1ccc(CCN2C(=S)N(C)C(=O)C2CC(=O)Nc2ccc(OC)cc2)cc1 (stereo unspecified)    active
19  Cc1ccc(Cl)cc1NC(=O)c1ccccc1OCC(=O)Nc1ccc(Cl)cc1    active
20  COc1ccc(C(=O)C2CCCN(C3CSCCSC3)C2)c(OC)c1 (stereo unspecified)    active

---

Tested on: HMLE_sh_eGFP viability, CellTiter-Glo luminescence, 72 h
ASSAY_PROCEDURE: cytotoxicity in HMLE control line with eGFP shRNA, dose response, counter-screen for HMLE_sh_ECad selective toxicity project, cell-based, HMLE_sh_eGFP, luminescence (AID 463074)
Activity calls are given as the source filed them.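 Rule for the calls: active = AC50 no more than tenfold above the top dose tested, or full inhibition at every dose with a flat fit (cut at about 19 µM in these data); inconclusive = flat curve fit with inhibition between 30% and 70%, or poor fit; inactive = AC50 more than tenfold above the top dose tested.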
Outcomes: active, inactive

>>> df
                                   compound     label
0  O=C(Nc1ncc(S(=O)(=O)c2ccc([N+](=O)[O-])cc2)s1)c1ccc2ccccc2c1    active
1  CCC1=NN(C(=O)c2cccc(Br)c2)C(O)(c2ccc(Br)cc2)C1 (stereo not given)    active
2                Cn1nnnc1Sc1ncnc2scc(Br)c12    active
3  COc1ccc(Nc2nc(N)c([N+](=O)[O-])c(NC3CCCCC3)n2)cc1    active
4  CN(CC(O)CON=C1c2ccccc2-c2ccccc21)S(=O)(=O)c1ccc(Br)cc1 (stereo not given)    active
5  COc1ccc(-c2cc(C(=O)N3CC4(C)CC3CC(C)(C)C4)no2)cc1OC (stereo not given)    active
6          O=C(Nc1ccccc1)Nc1ccc(O)c2ccccc12    active
7  COc1ccc(N(CC(=O)Nc2cc(C)ccc2C)S(=O)(=O)c2c(C)noc2C)cc1  inactive
8  COc1ccc(NC(=O)c2cccc(-c3ccc(O)cc3)c2)cn1    active
9  NC(=O)CC(NC(=O)Cc1cccc2ccccc12)c1ccc(N2CCc3ccccc3C2)c([N+](=O)[O-])c1 (stereo not given)    active

---

System: HMLE_sh_eGFP viability, CellTiter-Glo luminescence, 72 h
ASSAY_PROCEDURE: cytotoxicity in HMLE control line with eGFP shRNA, dose response, counter-screen for HMLE_sh_ECad selective toxicity project, cell-based, HMLE_sh_eGFP, luminescence (AID 463074);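 note: counterscreen control line to flag general toxicity for the HMLE_sh_ECad screen; potency for loss of viability as luminescence drops below DMSO wells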
PARAMETER_MEASURED: AC50

                                   molecule  value_observed
0  CC(=O)Nc1ccc(N=Cc2c(O)c(C(=O)Nc3ccccc3)cc3ccccc23)cc1         4.21 µM
1  NC(=O)CC(NC(=O)Cc1ccc(Br)cc1)c1ccc(N2CCN(c3ccccc3)CC2)c([N+](=O)[O-])c1 (stereo not given)         17.6 µM
2  COc1ccc(C(C)NCCC(c2ccc(OC(C)C)cc2)c2ccccc2OC)cc1 (stereo not given)         5.44 µM
3  Cc1ccc2nc(Cl)c3cc(C(=O)N(CCN(C)C)Cc4ccco4)sc3c2c1         3.53 µM
4  CN(C)c1ccc(-n2cccc2/C=C/[N+](=O)[O-])cc1         3.63 µM
5  O=C1NC(=O)N(Cc2ccccc2)C(=O)/C1=C\C=C\c1ccco1         1.93 µM
6  Cc1cc([N+](=O)[O-])nn1CC(=O)N/N=C/c1ccc(O)cc1O          5.4 µM
7  Cc1ccn2c(NC3CCCCC3)c(-c3cccc(SC4CCCCC4)c3)nc2c1         3.86 µM
8     O=c1cc(-c2ccccc2)[nH]n1-c1nc2ccccc2s1         5.53 µM
9  O=C(Nc1cccc(S(=O)(=O)N2CCCCC2)c1)c1ccc([N+](=O)[O-])o1         3.83 µM

---

Tested on: HMLE_sh_eGFP viability, CellTiter-Glo luminescence, 72 h
ASSAY_PROCEDURE: cytotoxicity in HMLE control line with eGFP shRNA, dose response, counter-screen for HMLE_sh_ECad selective toxicity project, cell-based, HMLE_sh_eGFP, luminescence (AID 463074);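 note: counterscreen control line to flag general toxicity for the HMLE_sh_ECad screen; potency for loss of viability as luminescence drops below DMSO wells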
The source made the active and inactive calls.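 The calls were made as follows: active = AC50 no more than tenfold above the top dose tested, or full inhibition at every dose with a flat fit (cut at about 19 µM in these data); inconclusive = flat curve fit with inhibition between 30% and 70%, or poor fit; inactive = AC50 more than tenfold above the top dose tested.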 Residues, ends and D or L forms follow the SMILES beside them. *: point of attachment. Boc = CC(C)(C)OC(=O)*; Bn = c1ccc(C*)cc1
Outcomes: True for active, False for inactive

MOLECULE	LABEL
O=C(Nc1ccncc1)c1cc(-c2cccc(Br)c2)nc2ccccc12	True
O=C(NCc1cccnc1)/C(=C\c1ccc(-c2cccc(Cl)c2)o1)S(=O)(=O)c1ccccc1	True
O=c1nc(/C=C/c2ccc(Cl)cc2Cl)cc(C(F)(F)F)[nH]1	True
CCSc1nnc(-c2sc3nnc(-c4ccccc4)c(-c4ccccc4)c3c2N)o1	True
CC(C)CCn1c(N)c(C(=O)NCc2cccs2)c2nc3ccccc3nc21	True
Cc1ccccc1-c1cc(C(=O)Nc2sc(C(=O)OC(C)C)c(C)c2C#N)c2ccccc2n1	True
O=C(Nc1ccccc1N1CCCCC1)c1ccc(Cl)c([N+](=O)[O-])c1	True
COc1ccccc1-c1sc2cc3c(cc2c1C#Cc1cncn1C)OCO3	True
NC(=O)c1sc(-c2ccsc2)cc1NS(=O)(=O)c1ccc(C(F)(F)F)cc1	True
O=c1cc(N2CCCCC2)c(-c2ccccc2)nn1Cc1ccc(Cl)cc1	True
COC(=O)c1ccc(/C=C/c2c(-c3ccc(OC)cc3)oc3ccccc23)cc1	True
COC(=O)c1ccc(/C=C/c2c(-c3ccc(OC)cc3)sc3ccccc23)cc1	True
Nc1ccc(CCN2CCN(c3cccc(C(F)(F)F)c3)CC2)cc1	True
Cc1ccc(-n2c(-c3cccs3)nc3ccccc3c2=O)cc1	True
COc1ccccc1C1=NOC(COc2ccc3c(C)cc(=O)oc3c2)C1 (stereo not given)	True
COc1ccc(-c2oc3ccc(N4CCOCC4)cc3c2C#CCO)cc1	True
CC(C)CC(NC(=O)C(NC(=O)C(Cc1ccc(OCc2ccccc2)cc1)NC(=O)OC(C)(C)C)C(C)C)C(N)=O (stereo not drawn) (Boc-Tyr(Bn)-Val-Leu-NH2; configuration not given here)	False
CCOC(=O)c1c(-c2ccccc2)csc1NC(=O)c1nn(CC)cc1Br	True
COc1ccc(C(=O)C2CCCN(Cc3cc(C)c(O)c(C)c3)C2)c(OC)c1 (stereo not given)	True
COc1ccc(C2c3c(ncn(Cc4ccco4)c3=N)Oc3ccc4ccccc4c32)cc1 (stereo not given)	True

---

Reported values of AC50 for individual entries
System: HMLE_sh_eGFP viability, CellTiter-Glo luminescence, 72 h
ASSAY_PROCEDURE: cytotoxicity in HMLE control line with eGFP shRNA, dose response, counter-screen for HMLE_sh_ECad selective toxicity project, cell-based, HMLE_sh_eGFP, luminescence (AID 463074);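 note: counterscreen control line to flag general toxicity for the HMLE_sh_ECad screen; potency for loss of viability as luminescence drops below DMSO wells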
PARAMETER_MEASURED: AC50

                                   molecule  value_observed
0  Cc1ccc(NS(=O)(=O)c2ccc(Cl)c(C(=O)Nc3ccccc3-c3nc4ccccc4[nH]3)c2)cc1C         1.48 µM
1  C=C(C)COc1ccc(-c2[nH]ncc2-c2ccc(OC)c(OC)c2)c(O)c1          4.5 µM
2  COc1ccc(-c2ccc(C)cc2)cc1[C@H]1[C@@H]2C=CCC[C@@]2(C)C(=O)N1Cc1ccccc1         3.87 µM
3  COCCCn1c(SCc2cccc(C(F)(F)F)c2)nc2cc(OC)c(OC)cc2c1=N         4.75 µM
4  CCCc1nc2ccccc2c(C(=O)OCC(=O)N2CCc3ccccc32)c1CC         3.97 µM
5  Cc1cccc(C)c1NS(=O)(=O)c1ccc(NC(=O)c2ccc(Cl)c([N+](=O)[O-])c2)cc1         3.66 µM
6   COc1ccc(C2=NN(c3nc4ccccc4s3)C(=O)C2)cc1          4.7 µM
7  CCCCCCC[C@@H](C/C=C/CCC(=O)N(C)C/C(=C/Cl)C/C(=C\C(=O)N1CC(OC)=CC1=O)OC)OC         5.38 µM
8    COc1ccc(/C=N/N(Cc2ccccc2)c2ccccc2)cc1O         6.77 µM
9  CC(C)(C)c1ccc(C(=O)CC(Sc2ccc(Cl)cc2)C(=O)O)cc1 (stereo not given)         9.07 µM
